TESTED ON: Prothrombin (Homo sapiens, UniProt P00734)
TEST PROTOCOL: Inhibition of Thrombin
EXPERIMENTAL PARAMETERS: read-out: kon (M-1-s-1)
RESULT TYPE: kon (M⁻¹ s⁻¹)
One number for each entry, in M⁻¹ s⁻¹.

// for each compound below, give its kon
1. NC1CCC(CNC(=O)[C@@H]2CCCN2C(=O)CC2c3ccccc3C=Cc3ccccc32)CC1 (some centres not stated)
2. NC1CCC(CNC(=O)[C@@H]2CCCN2C(=O)CC(c2ccccc2)c2ccncc2)CC1 (some centres not stated)
3. NC1CCC(CNC(=O)[C@@H]2CCCN2C(=O)CC(c2ccccc2)c2cccnc2)CC1 (some centres not stated)

Ans:
["1.8e+08", "1.55e+08", "2.1e+08"]

###

TESTED ON: Prothrombin (Homo sapiens, UniProt P00734)
TEST PROTOCOL: Inhibition of Thrombin
EXPERIMENTAL PARAMETERS: read-out: kon (M-1-s-1)
RESULT TYPE: kon (M⁻¹ s⁻¹)
Numbers only, in M⁻¹ s⁻¹.

Illustrative cases are given below, each with its answer.
| COMPOUND | kon [M⁻¹ s⁻¹] |
| --- | --- |
| NC1CCC(CNC(=O)[C@@H]2CCCN2C(=O)CC(c2cccnc2)c2ccc3c(c2)OCO3)CC1 (some centres undefined) | 2.51e+08 |
| NC1CCC(CNC(=O)[C@@H]2CCCN2C(=O)CC(c2ccccc2)c2ccccc2)CC1 (some centres undefined) | 2.1e+08 |
| NC1CCC(CNC(=O)[C@@H]2CCCN2C(=O)CC(c2ccccc2)c2ccccn2)CC1 (some centres undefined) | 1.8e+08 |

Q: I would be grateful if you could share the reported kon for NC1CCC(CNC(=O)[C@@H]2CCCN2C(=O)CC(C2CCCCC2)C2CCCCC2)CC1 (some centres undefined) .
Ans: 2.3e+08
